Assign melting point to each entry below.

The reported value for `COc1cc(O)ccc1CCCc1ccc(O)c(CC=C(C)C)c1` in terms of melting point is 85 to 86 °C

Sample CC(C)=CCC/C(C)=C/Cc1c(-c2ccc(O)cc2O)oc2cc(O)cc(O)c2c1=O [Compound 1, 5,7,2′,4′-Tetrahydroxy-3-geranylflavone] ; melting point observed: 94 to 95 °C

Input `COc1c(-c2ccc(O)c(O)c2)oc2cc(O)c(C/C=C(\C)CCC=C(C)C)c(O)c2c1=O` . Output melting point: 98 to 99 °C

Note to self: melting point recorded for `CC(C)=CCc1c(O)ccc(CCCc2ccc(O)cc2)c1O` was 115 to 116 °C

Briefly, melting point measured for `Oc1ccc(CCCc2ccc(O)cc2O)cc1` : 92 to 93 °C

Data point: `COc1ccc2c(c1CC=C(C)C)O[C@H](c1ccc(O)cc1O)CC2` ; melting point = 95 to 96 °C

---

# target.entity: aromatase (Homo sapiens, UniProt P11511)
# Construct: Reaction mixtures were prepared in glass tubes containing 4 μL of placental microsomes (5 mg/mL); from tissue; host or cells: human term placenta (microsomal fraction)
# Sequence (P11511 whole entry): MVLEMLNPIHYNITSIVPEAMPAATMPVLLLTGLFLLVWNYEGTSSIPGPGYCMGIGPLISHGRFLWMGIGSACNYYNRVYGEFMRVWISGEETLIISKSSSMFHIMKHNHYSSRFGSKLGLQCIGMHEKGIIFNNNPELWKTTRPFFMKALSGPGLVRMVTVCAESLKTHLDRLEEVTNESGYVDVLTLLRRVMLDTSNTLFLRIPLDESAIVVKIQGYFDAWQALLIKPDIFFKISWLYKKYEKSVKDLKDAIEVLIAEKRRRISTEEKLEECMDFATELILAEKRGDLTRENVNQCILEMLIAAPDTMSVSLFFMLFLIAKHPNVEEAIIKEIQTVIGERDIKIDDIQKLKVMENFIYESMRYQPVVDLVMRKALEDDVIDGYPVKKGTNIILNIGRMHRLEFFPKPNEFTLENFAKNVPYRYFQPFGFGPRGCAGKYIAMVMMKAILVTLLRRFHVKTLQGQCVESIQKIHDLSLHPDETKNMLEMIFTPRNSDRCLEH
# experiment.notes: Assay for inhibition of aromatase activity (human placental microsomes, [1,2-3H]androstenedione)
# Type: biochemical
# test.conditions: in vitro aromatase assay
readout.kind: aromatase inhibition, result in words

A selection of reference data follows.
# compound, result
measured = [
    ("Oc1ccc(CCCc2ccc(O)cc2O)cc1", "inactive"),
    ("CC(C)=CCC/C(C)=C/Cc1c(-c2ccc(O)cc2O)oc2cc(O)cc(O)c2c1=O [Compound 1, 5,7,2′,4′-Tetrahydroxy-3-geranylflavone]", "active"),
    ("COc1cc(O)ccc1CCCc1ccc(O)c(CC=C(C)C)c1", "inactive"),
    ("COc1cc(/C=C/C(=O)OC/C(C)=C/Cc2c(O)ccc(C(=O)/C=C/c3ccc(O)cc3O)c2O)ccc1O", "active"),
    ("C/C(=C\\Cc1c(O)ccc(C(=O)/C=C/c2ccc(O)cc2O)c1O)COC(=O)/C=C/c1ccc(O)cc1", "active"),
]

Turning now to a further record.
Record `CC(C)=CCc1c(O)ccc(CCCc2ccc(O)cc2)c1O` . Reported aromatase inhibition, result in words: inactive

---

# target.entity: aromatase (Homo sapiens, UniProt P11511)
# Construct: Reaction mixtures were prepared in glass tubes containing 4 μL of placental microsomes (5 mg/mL); from tissue; host or cells: human term placenta (microsomal fraction)
# experiment.notes: Assay for inhibition of aromatase activity (human placental microsomes, [1,2-3H]androstenedione)
# Type: biochemical
# test.conditions: human placental microsomes; read-out: IC50 (μM), aromatase inhibitory activity
// classify: if (IC50 < 8 µM) Satisfied else Not satisfied

QUERY: # strict comparison: is reported IC50 < 8 µM? input = COc1ccc(CCCc2ccc(O)cc2)c(O)c1 [Compound 18, Broussonin A]
RESULT: Not satisfied

QUERY: Does the reported IC50 of CC(C)=CCc1cc2cc(-c3cc(O)cc(O)c3)oc2cc1O [Compound 20, Moracin N] stay below 8 µM?
RESULT: Not satisfied

QUERY: Dear colleague, could you confirm whether IC50 of CC(C)=CCC/C(C)=C/Cc1c(-c2ccc(O)cc2O)oc2cc(O)cc(O)c2c1=O [Compound 1, 5,7,2′,4′-Tetrahydroxy-3-geranylflavone] falls below 8 µM? Thanks.
RESULT: Not satisfied

QUERY: Determine if CC(C)=CCc1c(O)ccc(C(=O)/C=C/c2ccc(O)cc2O)c1O [Compound 19, 2,4,2′,4′-Tetrahydroxy-3′-prenylchalcone] shows IC50 strictly lower than 8 µM.
RESULT: Satisfied

QUERY: Say whether its IC50 is strictly beneath 8 µM. Entry: O=C1C[C@@H](c2ccc(O)cc2O)Oc2cc(O)cc(O)c21 [Compound 14, (2S)-5,7,2′,4′-Tetrahydroxyflavanone]
RESULT: Satisfied

QUERY: Please state whether IC50 is below 8 µM for COc1cc(/C=C/C(=O)OC/C(C)=C/Cc2c(O)ccc(C(=O)/C=C/c3ccc(O)cc3O)c2O)ccc1O [Compound 8]
RESULT: Satisfied

QUERY: Bench note: check whether CC(C)=CCc1cc(-c2oc3c(CC=C(C)C)c(O)cc(O)c3c(=O)c2O)ccc1O [Compound 16, Broussoflavonol F] shows IC50 below 8 µM
RESULT: Not satisfied

QUERY: Regarding CC1=C[C@@H]2c3c(O)cc(-c4cc5ccc(O)cc5o4)cc3O[C@]3(c4ccc(O)cc4O)Oc4cc(O)ccc4[C@@H](C1)[C@H]23 [Compound 21, Albanol A] , kindly confirm whether its IC50 is beneath 8 µM.
RESULT: Satisfied

QUERY: Dear colleague, could you confirm whether IC50 of CC(C)=CCc1c(O)cc(O)cc1-c1cc2ccc(O)cc2o1 [Compound 10, Demethylmoracin I] falls below 8 µM? Thanks.
RESULT: Not satisfied
